# Read-out: MYC, MYC (gene 4609)
# EXPERIMENTAL_PROTOCOL: LTEA_HepaRG_MYC: Life Technologies and Expression Analysis (LTEA) Assay for MYC using HepaRG (AID 2283518)
# TEST_SETTINGS: mRNA level, 48 h; actives raise or lower the signal
# Experimental: LTEA_HepaRG is a cell based, multiplexed-readout assay that uses HepaRG, a human liver cell line, with measurements taken at 48 hours after chemical dosing on a 96-well plate.LTEA_HepaRG_MYC is one of 102 assay component(s) measured in the LTEA HepaRG cell culture assay. It is a marker of Cell proliferation, survival, death.Data from the assay component LTEA_HepaRG_MYC was analyzed into 1 endpoint. […]
The source made the active and inactive calls. How the source made its calls: active means hit-call score of the fitted dose curve at least 0.9, where 1 is the maximum; inactive means score below 0.9.
Valid outcomes are listed here; reply with one: TRUE for active, FALSE for inactive

Worked examples follow.
1. O=[N+]([O-])c1ccccc1: FALSE
2. CCNc1nc(Cl)nc(NC(C)(C)C)n1: FALSE
3. CCN(CC)c1ccccc1: FALSE

Exercise: Entry OCC1CO1 (configuration not stated) : call = ?
Key: FALSE

Exercise: Entry CCOP(=S)(OCC)SCSCC : call = ?
Key: FALSE

Exercise: Entry Cc1cccc(N)c1 : call = ?
Key: FALSE

Exercise: Entry Nc1cc2c3c(c1)C(c1ccccc1)=N[C@@H](NC(=O)c1cccnc1)C(=O)N3CC2 : call = ?
Key: FALSE

Exercise: Entry c1nc[nH]n1 : call = ?
Key: TRUE

Exercise: Entry Nc1ccc2ccccc2c1 : call = ?
Key: TRUE

Exercise: Entry c1ccc2c(c1)Nc1ccccc1S2 : call = ?
Key: FALSE

Exercise: Entry COCCOCCO : call = ?
Key: FALSE

Exercise: Entry CC(C)(C)c1ccc(O)cc1 : call = ?
Key: FALSE

Exercise: Entry CCCCN(CCCC)N=O : call = ?
Key: FALSE

Exercise: Entry c1cc2c3c(cccc3c1)CC2 : call = ?
Key: FALSE

Exercise: Entry CC(Cc1ccc(OCC(=O)O)cc1)NCC(O)c1csc(C(F)(F)F)n1 (configuration not stated) : call = ?
Key: FALSE

Exercise: Entry CCCCCCCc1ccc(O)cc1 : call = ?
Key: FALSE

Exercise: Entry CCOC(=O)c1ccccc1C(=O)OCC : call = ?
Key: FALSE

---

# EXPERIMENTAL_PROTOCOL: BSK_hDFCGF_Proliferation: Cell Proliferation Assessment in the BioMAP Diversity Plus: hDFCGF Assay (AID 2283059);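 further: curves fitted for both rise and fall of signal versus DMSO baseline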
# TEST_SETTINGS: primary human foreskin fibroblasts
Calls of active or inactive are those of the source. Rule for the calls: active = hit-call score of the fitted dose curve at least 0.9, where 1 is the maximum; inactive = score below 0.9.
Valid outcomes are listed here; reply with one: active, inactive

1. O=[N+]([O-])c1ccccc1: inactive
2. CCCCC(CC)COP(=O)(Oc1ccccc1)Oc1ccccc1 (stereo not given): active
3. CN(C)C(=O)Cl: inactive
4. CCCCCCCc1ccc(O)cc1: active
5. CCOP(=S)(OCC)SCSc1ccc(Cl)cc1: inactive
6. CCNc1nc(Cl)nc(NC(C)(C)C)n1: inactive

Exercise: Entry CCC(C)(C)c1ccc(O)cc1 : call = ?
Key: inactive

Exercise: Entry Nc1ccc([N+](=O)[O-])cc1Cl : call = ?
Key: inactive

Exercise: Entry ClC(Cl)c1ccccc1 : call = ?
Key: inactive
